Data provenance is paper PMC12423761.

test system: MCF-7 (human breast adenocarcinoma) cells; assay: Antiproliferative activity, LDH release assay, MCF-7; format: cell-based; conditions: MCF7, 48 h, read-out: IC50 (μM) ± SD MCF-7
Recorded Metric: IC50 (µM)

Sample records with IC50:
Smiles String: COc1ccc(N=Nc2sc(=NN=C(C)c3c(O)c4ccccc4oc3=O)n(C)c2C)cc1
IC50 [µM]: 5
--
Smiles String: COc1ccc(N=Nc2sc(=NN=C(C)c3c(O)c4ccccc4oc3=O)[nH]c2C)cc1
IC50 [µM]: 3.1
--
Smiles String: CC(=NN=c1sc(N=Nc2ccc(F)cc2)c(C)n1C)c1c(O)c2ccccc2oc1=O
IC50 [µM]: 2.8
--
Smiles String: CCn1c(C)c(N=Nc2ccc([N+](=O)[O-])cc2[N+](=O)[O-])sc1=NN=C(C)c1c(O)c2ccccc2oc1=O
IC50 [µM]: 2.6

A: CC(=NN=c1sc(N=Nc2ccc(Br)cc2)c(C)n1C)c1c(O)c2ccccc2oc1=O
B: CCn1c(C)c(N=Nc2ccc(Br)cc2)sc1=NN=C(C)c1c(O)c2ccccc2oc1=O
## Task Which entry has a larger number for IC50, A or B ? Answer = label.
## Result B

I: CC(=NN=c1[nH]c(C)c(N=Nc2ccc(F)cc2)s1)c1c(O)c2ccccc2oc1=O
II: CC(=NN=c1sc(N=Nc2ccc(Cl)cc2)c(C)n1C)c1c(O)c2ccccc2oc1=O
## Task // task: argmin of IC50 over [ I , II ] # answer = label of selected item
## Result I
(I: 2.9 µM, II: 5.4 µM)
